These data points were gathered from patent US10285989B2.

- Target or test system: UniProt B3VTJ2
- Sequence (B3VTJ2 1-941): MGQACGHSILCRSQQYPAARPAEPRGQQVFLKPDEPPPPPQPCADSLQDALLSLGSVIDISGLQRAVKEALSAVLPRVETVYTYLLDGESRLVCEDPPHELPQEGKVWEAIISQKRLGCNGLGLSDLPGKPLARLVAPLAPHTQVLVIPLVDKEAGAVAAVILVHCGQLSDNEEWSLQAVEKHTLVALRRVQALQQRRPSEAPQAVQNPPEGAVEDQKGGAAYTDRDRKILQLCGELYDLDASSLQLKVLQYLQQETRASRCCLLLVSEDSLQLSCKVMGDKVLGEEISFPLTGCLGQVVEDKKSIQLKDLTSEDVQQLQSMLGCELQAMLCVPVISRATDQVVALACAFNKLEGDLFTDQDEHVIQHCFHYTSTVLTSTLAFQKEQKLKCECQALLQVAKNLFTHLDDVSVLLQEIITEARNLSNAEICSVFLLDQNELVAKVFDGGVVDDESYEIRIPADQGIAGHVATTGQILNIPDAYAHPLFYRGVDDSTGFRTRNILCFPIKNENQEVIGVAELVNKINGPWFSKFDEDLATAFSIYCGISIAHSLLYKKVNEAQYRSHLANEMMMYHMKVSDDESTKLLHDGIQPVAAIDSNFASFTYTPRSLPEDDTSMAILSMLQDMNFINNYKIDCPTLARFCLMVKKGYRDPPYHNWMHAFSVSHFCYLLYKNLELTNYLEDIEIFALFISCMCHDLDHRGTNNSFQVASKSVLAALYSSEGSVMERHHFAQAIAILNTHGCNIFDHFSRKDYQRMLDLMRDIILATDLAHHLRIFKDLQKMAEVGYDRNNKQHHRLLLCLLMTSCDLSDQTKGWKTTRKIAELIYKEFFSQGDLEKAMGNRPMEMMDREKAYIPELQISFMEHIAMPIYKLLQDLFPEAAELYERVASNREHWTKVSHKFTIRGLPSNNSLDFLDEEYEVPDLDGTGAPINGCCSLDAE
- Method notes: PDE2 fluorescence polarization (IMAP FP) inhibition assay, rhesus PDE2A3
- Type: biochemical, rhesus macaque
- Stated conditions: Lab A; read-out: Rhesus PDE2 Ki (nM) - Lab A
Test readout: Ki (nM)

A selection of reference data follows.
Compound: C[C@@H](NC(=O)c1cc(=O)[nH]c(NC2CCC2)n1)c1ccc(C(F)(F)F)cc1
Target or test system: UniProt B3VTJ2
Test readout: Ki
Data value: 67

Compound: C[C@@H](NC(=O)c1cc(=O)[nH]c(N2CCCCC2)n1)c1ccc(C(F)(F)F)cc1
Target or test system: UniProt B3VTJ2
Test readout: Ki
Data value: 32

Compound: CSc1nc(C(=O)N[C@H](C)c2ccc(C(F)(F)F)cc2)cc(=O)[nH]1
Target or test system: UniProt B3VTJ2
Test readout: Ki
Data value: 46

(A) C[C@@H](NC(=O)c1cc(=O)[nH]c(NC2CCCC2)n1)c1ccc(C(F)(F)F)cc1
(B) CC[C@@H](NC(=O)c1cc(=O)[nH]c(N(C)C)n1)c1ccc(SC(F)(F)F)cc1
(C) CN(C)c1nc(C(=O)NC2(c3ccc(SC(F)(F)F)cc3)CC2)cc(=O)[nH]1
(D) CN(C)c1nc(C(=O)N[C@@H](c2ccc(C(F)(F)F)c(F)c2)C2CC2)cc(=O)[nH]1
(E) Cc1ncc2c(n1)CN(c1nc(C(=O)N[C@H](C)c3ccc(C(F)(F)F)cc3)cc(=O)[nH]1)C2
Hey, quick one: sort these by Ki, top value first please. Put the labels in the order asked and list them. A, E, C, D, B

(1) COc1nc(C(=O)N[C@H](C)c2ccc(C(F)(F)F)cc2)cc(=O)[nH]1
(2) CN(C)c1nc(C(=O)N[C@@H](c2ccc(C(F)(F)F)cc2)C2CC2)cc(=O)[nH]1
Which one would you say has the larger Ki value: 1 , or 2 ? Answer by quoting the chosen item's label. 1
(1: 130 nM, 2: 0.66 nM)

(a) O=C(N[C@@H](c1ccc(C2CC2)cc1)C1CC1)c1cc(=O)[nH]c(N2CCCC2)n1
(b) C[C@@H](NC(=O)c1cc(=O)[nH]c(N2CCC(F)(F)C2)n1)c1ccc(C(F)(F)F)cc1
(c) CC(C)[C@@H](NC(=O)c1cc(=O)[nH]c(N(C)C)n1)c1ccc(OC(F)(F)F)c(Cl)c1
Hey, quick one: sort these by Ki, top value first please. Write the labels in rank order as requested. b, c, a

(1) CC(NC(=O)c1cc(=O)[nH]c(OC2CCOC2)n1)c1ccc(C(F)(F)F)cc1 (stereo not shown)
(2) C[C@@H](NC(=O)c1cc(=O)[nH]c(N2CCOCC2)n1)c1ccc(C(F)(F)F)cc1
Param pair: 1 , 2 . Output: the one whose Ki is numerically greater. Could you answer with the label of the item you picked? 1
